Answer each item with its documented Kd.
- System tested: Ba/F3 BCR-FGFR1 (Homo sapiens)
- Construct: BCR (fusion partner); host or cells: Ba/F3; the other entry of the earlier key: BCR (P11274, Breakpoint cluster region protein)
- Sequence (P11362 478-767 limits assumed): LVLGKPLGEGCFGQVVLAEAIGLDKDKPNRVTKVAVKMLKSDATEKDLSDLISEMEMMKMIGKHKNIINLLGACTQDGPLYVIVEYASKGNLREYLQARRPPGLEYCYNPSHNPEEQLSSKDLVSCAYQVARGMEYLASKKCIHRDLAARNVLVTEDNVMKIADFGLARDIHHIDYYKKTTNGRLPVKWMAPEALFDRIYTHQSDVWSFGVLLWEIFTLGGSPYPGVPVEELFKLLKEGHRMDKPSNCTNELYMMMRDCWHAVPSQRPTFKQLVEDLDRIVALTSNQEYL
- Test protocol: Ba/F3 cell viability assay (CellTiter-Glo 2.0)
- Format: cell-based
- Cond: Ba/F3 cell data, BCR-FGFR1 fusion, 48 hours

Consider the worked cases shown below.
C=CC(=O)N1CCC2(CC1)CC(n1ncc(-c3cc(OC(CO)c4ccn(C)n4)c4c(C#N)cnn4c3)c1C)C2 (stereo not shown) = 250 to 1000 nM
CCC(=O)N1CCC2(CC1)CC(n1cc(-c3cc(O[C@H](CO)c4ccc(F)cn4)c4c(C#N)cnn4c3)cn1)C2 = 100 to 250 nM
C=CC(=O)N1CC(C(=O)N2CCC(n3nnc(-c4cc(O[C@H](CO)c5ccccn5)c5c(C#N)cnn5c4)c3C)CC2)C1 (single isomer, unassigned) = ≥ 1000 nM
C=CC(=O)N1CCC2(CC1)CC(n1ncc(-c3cc(O[C@@H](CO)c4ccccn4)c4c(C#N)cnn4c3)c1C)C2 = ≥ 1000 nM
C=CC(=O)N1CCC2(CC1)CC(n1nnc(-c3cc(O[C@@H](CO)c4ccc(F)cn4)c4c(C#N)cnn4c3)c1C)C2 = ≥ 1000 nM

For every item below, please supply its Kd.
1. C=CC(=O)N1CCC2(CC1)CC(n1nnc(-c3cc(O[C@H](C)c4ccccn4)c4c(Cl)cnn4c3)c1C)C2
2. C=CC(=O)N1CCC2(CC1)CC(n1ncc(-c3cc(OC(CO)c4ccccn4)c4c(Cl)cnn4c3)c1C)C2 (single isomer, unassigned)

100 to 250 nM
250 to 1000 nM

====

- System tested: Ba/F3 BCR-FGFR1 (Homo sapiens)
- Construct: BCR (fusion partner); host or cells: Ba/F3; the other entry of the earlier key: BCR (P11274, Breakpoint cluster region protein)
- Test protocol: Ba/F3 cell viability assay (CellTiter-Glo 2.0)
- Type: cell-based
- Cond: Ba/F3 cell data, BCR-FGFR1 fusion, 48 hours
Answer each item with its documented Kd.

Consider the worked cases shown below.
C=CC(=O)N1CCC2(CC1)CC(n1ncc(-c3cc(O[C@@H](CO)c4ccc(F)cn4)c4c(C#N)cnn4c3)c1C)C2 = ≥ 1000 nM
C=CC(=O)N1CCC2(CC1)CC(n1ncc(-c3cc(O[C@H](CO)c4ccccn4)c4c(C#N)cnn4c3)c1C)C2 = 100 to 250 nM
C=CC(=O)N1CCC2(CC1)CC(n1nnc(-c3cc(O[C@H](CO)c4ccc(F)cn4)c4c(C#N)cnn4c3)c1C)C2 = 250 to 1000 nM
C=CC(=O)N1CCC2(CC1)CC(n1ncc(-c3cc(OC(CO)c4ccnn4C)c4c(C#N)cnn4c3)c1C)C2 (stereo not shown) = ≥ 1000 nM
C=CC(=O)N1CC(OC)(C(=O)N2CCC(n3nnc(-c4cc(O[C@H](CO)c5ccccn5)c5c(C#N)cnn5c4)c3C)CC2)C1 = ≥ 1000 nM
C=CC(=O)N1CCC2(CC1)CC(n1nnc(-c3cc(O[C@H](C)c4ccccn4)c4c(C#N)cnn4c3)c1C)C2 = 0.1 to 100 nM

Continue with the compound presented below.
Report measured Kd; entry is C=CC(=O)N1CCC2(CC1)CC(n1ncc(-c3cc(O[C@@H](CO)c4ccccn4)c4c(Cl)cnn4c3)c1C)C2
≥ 1000 nM
